Data credit: PubChem BioAssay (EPA / NIEHS)

Read-out: Interleukin-1 alpha (IL1a), IL1A (gene 3552)
protocol_summary: BSK_BE3C_IL1a: BioMAP Diversity Plus: BE3C Assay for Interleukin-1 alpha (IL1a) Biomarker Activity (AID 2283016)
condition_description: primary human bronchial epithelial cells; actives raise or lower the signal
Calls of active or inactive are those of the source. The calls were made as follows: active = hit-call score of the fitted dose curve at least 0.9, where 1 is the maximum; inactive = score below 0.9.
Possible outcomes: active, inactive

compound=OB(O)O class_name=inactive
compound=CCNc1nc(N)nc(Cl)n1 class_name=inactive
compound=CCCN(CCC)c1c([N+](=O)[O-])cc(C(F)(F)F)c(N)c1[N+](=O)[O-] class_name=active
compound=COc1nc(C)nc(NC(=O)NS(=O)(=O)c2ccccc2OCCCl)n1 class_name=inactive
compound=c1ccc(Nc2ccccc2)cc1 class_name=inactive
compound=CN(C)C(=O)Nc1ccc(Cl)c(Cl)c1 class_name=inactive
compound="CCCCCCC(C)OC(=O)COc1nc(F)c(Cl)c(N)c1Cl (centres undefined)" class_name=inactive
compound=CCN(CC)C(=O)c1cccc(C)c1 class_name=inactive
compound=CCCCOC(=O)[C@@H](C)Oc1ccc(Oc2ccc(C(F)(F)F)cn2)cc1 class_name=inactive
compound=CC(=O)[C@H]1CC[C@H]2[C@@H]3CCC4=CC(=O)CC[C@]4(C)[C@H]3CC[C@]12C class_name=inactive
compound=CCCCOCCOCCOCc1cc2c(cc1CCC)OCO2 class_name=inactive
compound=O=C(O)c1ccccc1 class_name=inactive
compound=COC(=O)c1cccc(C)c1S(=O)(=O)NC(=O)Nc1nc(OCC(F)(F)F)nc(N(C)C)n1 class_name=inactive
compound=COC(=O)CSc1cc(N=c2sc(=O)n3n2CCCC3)c(F)cc1Cl class_name=inactive
compound=CCOC(=O)c1ccc(O)cc1 class_name=inactive
compound=COCCO class_name=inactive
compound=COC(=O)c1ccccc1S(=O)(=O)NC(=O)Nc1nc(OC(F)F)cc(OC(F)F)n1 class_name=inactive
compound=CCCOC(=O)NCCCN(C)C class_name=inactive
compound=C#C[C@]1(O)CC[C@H]2[C@@H]3CCC4=CC(=O)CC[C@@H]4[C@H]3CC[C@@]21CC class_name=inactive
compound=c1ccc2[nH]c(-c3cscn3)nc2c1 class_name=inactive
compound="C[C@]12CC[C@@H]3c4ccc(O)cc4C[C@@H](CCCCCCCCCS(=O)CCCC(F)(F)C(F)(F)F)[C@H]3[C@@H]1CC[C@@H]2O (some centres undefined)" class_name=inactive
compound=CCCOC(=O)c1ccc(C(=O)OCCC)nc1 class_name=inactive
compound=CCN(Cc1c(F)cccc1Cl)c1c([N+](=O)[O-])cc(C(F)(F)F)cc1[N+](=O)[O-] class_name=inactive
compound="CCOC(=O)C(C)Oc1ccc(Oc2cnc3cc(Cl)ccc3n2)cc1 (centres undefined)" class_name=inactive
compound=CCOC(=O)[C@H](C)Oc1ccc(Oc2nc3ccc(Cl)cc3o2)cc1 class_name=inactive
compound=CSC(=O)c1cccc2nnsc12 class_name=inactive
compound=CCSC(=O)N(CC(C)C)CC(C)C class_name=inactive
compound=CCOC(=O)COc1cc(-n2ncc(C(F)(F)F)c(C)c2=O)c(F)cc1Cl class_name=inactive
compound="CCOC(=O)C(C)Oc1ccc(Oc2nc3ccc(Cl)cc3o2)cc1 (centres undefined)" class_name=inactive
compound=CCCN(CCC)C(=O)SCC class_name=inactive
compound=CCCCCOC(=O)COc1cc(N2C(=O)C3=C(CCCC3)C2=O)c(F)cc1Cl class_name=inactive
compound=C#CCOC(=O)[C@@H](C)Oc1ccc(Oc2ncc(Cl)cc2F)cc1 class_name=inactive
compound=COC(=O)c1ccc(CNS(C)(=O)=O)cc1S(=O)(=O)NC(=O)Nc1nc(OC)cc(OC)n1 class_name=inactive
compound="CCCCC(CC)COC(=O)c1ccccc1C(=O)O (centres undefined)" class_name=inactive
compound=S=C(S)NCCNC(=S)S.[Mn+2].[S-]C([S-])=NCCN=C([S-])[S-].[Zn+2] class_name=inactive
compound=S=C([S-])NCCNC(=S)[S-].[Mn+2] class_name=inactive
compound=CCOC(=O)NCCOc1ccc(Oc2ccccc2)cc1 class_name=inactive
compound=COC(=O)c1ccccc1C(=O)O class_name=inactive
compound="CCCCOC(=O)C(C)Oc1ccc(Oc2ccc(C(F)(F)F)cn2)cc1 (centres undefined)" class_name=inactive
